Tested on: BGLAP
Assay: BGLAP gene activation assay (BGLAP mRNA, QuantiGene 2.0) in MG-63 cells
Type: cell-based, human
Conditions: Homo sapiens, MG-63, 24 h, read-out: EC50, BGLAP activation
Source text: Human osteosarcoma cells MG-63, (CRL-1427, American Type Culture Collection (ATCC), Manassas, VA), were maintained in EMEM (ATCC 30–2003) + 10% FBS in 5% CO2. […] QuantiGene 2.0 Assay Kit (Affymetrix QS0009) was used to quantitate BGLAP and the Housekeeping gene GUSB mRNA levels. […] The resulting luminescence signal was detected on an Envision (Perkin Elmer). […]
readout: EC50 (nM)

compound="C=C1/C(=C\\C=C2/CCC[C@]3(C)[C@@H]([C@H](C)CCCC(C)(C)O)CC[C@@H]23)C[C@@H](O)C[C@@H]1O [1,25D3, 1α,25-dihydroxyvitamin D3, reference compound]" target=BGLAP endpointvalue=4.1

====

System: BGLAP
Assay: BGLAP gene activation assay (BGLAP mRNA, QuantiGene 2.0) in MG-63 cells
Assay type: cell-based, human
Conditions: MG-63 cells; fold change over DMSO normalized to 1,25D3 = 100%
readout: Max. Stim., BGLAP activation (%)

compound="CCC(CC)(c1ccc(OCC(O)C(C)(C)C)c(C)c1)c1ccc(C(=O)N(C)CC(=O)O)c(C)c1 (stereo not shown) [Cmpd1]" target=BGLAP endpointvalue=94.2
compound="CCc1cc(C(CC)(CC)c2ccc(OCC(O)C(C)(C)C)c(C)c2)sc1C(=O)N[C@@H](C)C(=O)O (single isomer, unassigned) [Cmpd2]" target=BGLAP endpointvalue=73
compound="CCC(CC)(c1ccc(OCC(O)C(C)(C)C)c(C)c1)c1cc(C)c(C(=O)Nc2nnn[nH]2)s1 (stereo not shown) [Cmpd3]" target=BGLAP endpointvalue=75.9
compound="C=C1/C(=C\\C=C2/CCC[C@]3(C)[C@@H]([C@H](C)CCCC(C)(C)O)CC[C@@H]23)C[C@@H](O)C[C@@H]1O [1,25D3, 1α,25-dihydroxyvitamin D3, reference compound]" target=BGLAP endpointvalue=100

====

Test system: BGLAP
Assay: BGLAP gene activation assay (BGLAP mRNA, QuantiGene 2.0) in MG-63 cells
Type: cell-based, human
Details: Homo sapiens; MG-63 cells, 24 h; average of replicate runs; read-out: EC50, BGLAP activation
pEC50: −log10 of the molar value.
readout: pEC50

compound="CCC(CC)(c1ccc(OCC(O)C(C)(C)C)c(C)c1)c1ccc(C(=O)N(C)CC(=O)O)c(C)c1 (centres unmarked)" readout=pEC50 endpointvalue=8.84
compound="CCc1cc(C(CC)(CC)c2ccc(OCC(O)C(C)(C)C)c(C)c2)sc1C(=O)N[C@@H](C)C(=O)O (single isomer, unassigned)" readout=pEC50 endpointvalue=7.46

====

Test system: TRPV6
Assay: TRPV6 gene activation assay (TRPV6 mRNA, QuantiGene 2.0) in differentiated C2BBe1 cells
Format: cell-based, human
Conditions: Homo sapiens; C2BBe1 cells differentiated 6 days, 24 h; average of replicate runs
pEC50: −log10 of the molar value.
readout: pEC50

molecule="CCc1cc(C(CC)(CC)c2ccc(OCC(O)C(C)(C)C)c(C)c2)sc1C(=O)N[C@@H](C)C(=O)O (single isomer, unassigned)" target=TRPV6 readout=pEC50 endpointvalue=6.40
molecule="CCC(CC)(c1ccc(OCC(O)C(C)(C)C)c(C)c1)c1ccc(C(=O)N(C)CC(=O)O)c(C)c1 (stereo not drawn)" target=TRPV6 readout=pEC50 endpointvalue=7.20
molecule="C=C1/C(=C\\C=C2/CCC[C@]3(C)[C@@H]([C@H](C)CCCC(C)(C)O)CC[C@@H]23)C[C@@H](O)C[C@@H]1O [1,25D3, 1α,25-dihydroxyvitamin D3, reference compound]" target=TRPV6 readout=pEC50 endpointvalue=8.01
